- Procedure Text: total protein half-life in vivo (active degradation + dilution); higher = more stable protein
- Setup Conditions: wild type E. coli NCM3722; growth: P-lim chemostat; doubling time 12 h
Measured total protein half-life in vivo, listed per entry.
# number only, unit h dropped from output

**Q:** // query total protein half-life in vivo value for entry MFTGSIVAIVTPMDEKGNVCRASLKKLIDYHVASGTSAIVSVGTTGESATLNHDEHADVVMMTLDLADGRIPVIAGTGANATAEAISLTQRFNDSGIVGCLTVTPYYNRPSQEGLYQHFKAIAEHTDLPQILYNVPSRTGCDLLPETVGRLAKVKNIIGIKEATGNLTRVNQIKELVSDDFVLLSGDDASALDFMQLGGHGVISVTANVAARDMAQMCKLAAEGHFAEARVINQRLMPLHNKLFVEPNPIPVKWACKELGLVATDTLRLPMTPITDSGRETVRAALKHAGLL [P0A6L2]
**A:** 11.1

**Q:** Reported total protein half-life in vivo for `MTIYTLSHGSLKLDVSDQGGVIEGFWRDTTPLLRPGKKSGVATDASCFPLVPFANRVSGNRFVWQGREYQLQPNVEWDAHYLHGDGWLGEWQCVSHSDDSLCLVYEHRSGVYHYRVSQAFHLTADTLTVTLSVTNQGAETLPFGTGWHPYFPLSPQTRIQAQASGYWLEREQWLAGEFCEQLPQELDFNQPAPLPRQWVNNGFAGWNGQARIEQPQEGYAIIMETTPPAPCYFIFVSDPAFDKGYAFDFFCLEPMSHAPDDHHRPEGGDLIALAPGESTTSEMSLRVEWL` : what is it?
**A:** 11.3

**Q:** Given the sequence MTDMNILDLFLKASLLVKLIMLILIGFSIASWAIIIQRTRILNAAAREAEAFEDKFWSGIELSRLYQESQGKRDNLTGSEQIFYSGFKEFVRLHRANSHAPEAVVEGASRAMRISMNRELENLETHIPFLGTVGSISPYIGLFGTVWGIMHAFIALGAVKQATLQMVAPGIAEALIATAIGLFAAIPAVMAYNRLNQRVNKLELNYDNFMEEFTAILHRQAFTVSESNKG [P0ABU9] , what is its reported total protein half-life in vivo?
**A:** 12.7

**Q:** Which total protein half-life in vivo is listed for `MIENRPWLTIFSHTMLILGIAVILFPLYVAFVAATLDKQAVYAAPMTLIPGTHLLENIHNIWVNGVGTNSAPFWRMLLNSFVMAFSITLGKITVSMLSAFAIVWFRFPLRNLFFWMIFITLMLPVEVRIFPTVEVIANLQMLDSYAGLTLPLMASATATFLFRQFFMTLPDELVEAARIDGASPMRFFCDIVFPLSKTNLAALFVITFIYGWNQYLWPLLIITDVDLGTTVAGIKGMIATGEGTTEWNSVMVAMLLTLIPPVVIVLVMQRAFVRGLVDSEK` ?
**A:** 12.6

**Q:** Would you kindly share the measured total protein half-life in vivo for MKKLVLSLSLVLAFSSATAAFAAIPQNIRIGTDPTYAPFESKNSQGELVGFDIDLAKELCKRINTQCTFVENPLDALIPSLKAKKIDAIMSSLSITEKRQQEIAFTDKLYAADSRLVVAKNSDIQPTVESLKGKRVGVLQGTTQETFGNEHWAPKGIEIVSYQGQDNIYSDLTAGRIDAAFQDEVAASEGFLKQPVGKDYKFGGPSVKDEKLFGVGTGMGLRKEDNELREALNKAFAEMRADGTYEKLAKKYFDFDVYGG [P0AEU0] ?
**A:** 14.3

* * *

- Procedure Text: total protein half-life in vivo (active degradation + dilution); higher = more stable protein
- Setup Conditions: wild type E. coli NCM3722; growth: P-lim chemostat; doubling time 6 h
Collected total protein half-life in vivo values appear next to each entry.
Could you kindly put the unit after your number?

Solved cases (2 shown):
Sequence Text: MIIIRYLVRETLKSQLAILFILLLIFFCQKLVRILGAAVDGDIPANLVLSLLGLGVPEMAQLILPLSLFLGLLMTLGKLYTESEITVMHACGLSKAVLVKAAMILAVFTAIVAAVNVMWAGPWSSRHQDEVLAEAKANPGMAALAQGQFQQATNGSSVLFIESVDGSDFKDVFLAQIRPKGNARPSVVVADSGHLTQLRDGSQVVTLNQGTRFEGTALLRDFRITDFQDYQAIIGHQAVALDPNDTDQMDMRTLWNTDTDRARAELNWRITLVFTVFMMALMVVPLSVVNPRQGRVLSMLPAMLLYLLFFLIQTSLKSNGGKGKLDPTLWMWTVNLIYLALAIVLNLWDTVPVRRLRASFSRKGAV [P0AF98]
Readout Type: total protein half-life in vivo
Test Value: 6.85 h
--
Sequence Text: MNIRDLEYLVALAEHRHFRRAADSCHVSQPTLSGQIRKLEDELGVMLLERTSRKVLFTQAGMLLVDQARTVLREVKVLKEMASQQGETMSGPLHIGLIPTVGPYLLPHIIPMLHQTFPKLEMYLHEAQTHQLLAQLDSGKLDCVILALVKESEAFIEVPLFDEPMLLAIYEDHPWANRECVPMADLAGEKLLMLEDGHCLRDQAMGFCFEAGADEDTHFRATSLETLRNMVAAGSGITLLPALAVPPERKRDGVVYLPCIKPEPRRTIGLVYRPGSPLRSRYEQLAEAIRARMDGHFDKVLKQAV [P0ACQ4]
Readout Type: total protein half-life in vivo
Test Value: 4.77 h

**Q:** Could you tell me which total protein half-life in vivo is on file for `MRNKPFYLLCAFLWLAVSHALAADSTITIRGYVRDNGCSVAAESTNFTVDLMENAAKQFNNIGATTPVVPFRILLSPCGNAVSAVKVGFTGVADSHNANLLALENTVSAASGLGIQLLNEQQNQIPLNAPSSALSWTTLTPGKPNTLNFYARLMATQVPVTAGHINATATFTLEYQ` ?
**A:** 5.52 h

* * *

- Procedure Text: total protein half-life in vivo (active degradation + dilution); higher = more stable protein
- Setup Conditions: wild type E. coli NCM3722; growth: P-lim chemostat; doubling time 12 h
Readout Type: total protein half-life in vivo
Include the unit after the number when you answer.

Some solved cases for reference:
Sequence Text: MSTTWFVGADWLAEHIDDPEIQIIDARMASPGQEDRNVAQEYLNGHIPGAVFFDIEALSDHTSPLPHMLPRPETFAVAMRELGVNQDKHLIVYDEGNLFSAPRAWWMLRTFGVEKVSILGGGLAGWQRDDLLLEEGAVELPEGEFNAAFNPEAVVKVTDVLLASHENTAQIIDARPAARFNAEVDEPRPGLRRGHIPGALNVPWTELVREGELKTTDELDAIFFGRGVSYDKPIIVSCGSGVTAAVVLLALATLDVPNVKLYDGAWSEWGARADLPVEPVK
Readout Type: total protein half-life in vivo
Test Value: 11 h

Sequence Text: MIQSQINRNIRLDLADAILLSKAKKDLSFAEIADGTGLAEAFVTAALLGQQALPADAARLVGAKLDLDEDSILLLQMIPLRGCIDDRIPTDPTMYRFYEMLQVYGTTLKALVHEKFGDGIISAINFKLDVKKVADPEGGERAVITLDGKYLPTKPF
Readout Type: total protein half-life in vivo
Test Value: 11.1 h

We next turn to a different sequence, shown below.
**Q:** Recorded total protein half-life in vivo for `MRQTKTGILLANLGTPDAPTPEAVKRYLKQFLSDRRVVDTSRLLWWPLLRGVILPLRSPRVAKLYASVWMEGGSPLMVYSRQQQQALAQRLPEMPVALGMSYGSPSLESAVDELLAEHVDHIVVLPLYPQFSCSTVGAVWDELARILARKRSIPGISFIRDYADNHDYINALANSVRASFAKHGEPDLLLLSYHGIPQRYADEGDDYPQRCRTTTRELASALGMAPEKVMMTFQSRFGREPWLMPYTDETLKMLGEKGVGHIQVMCPGFAADCLETLEEIAEQNREVFLGAGGKKYEYIPALNATPEHIEMMANLVAAYR` , please?
**A:** 12.2 h

* * *

- Procedure Text: total protein half-life in vivo (active degradation + dilution); higher = more stable protein
- Setup Conditions: E. coli NCM3722 delta-clpP; growth: N-lim chemostat; doubling time 6 h
Output true (1) for total protein half-life in vivo not less than 4 h; output false (0) otherwise.

Sequence Text: MKSRAAVAFAPGKPLEIVEIDVAPPKKGEVLIKVTHTGVCHTDAFTLSGDDPEGVFPVVLGHEGAGVVVEVGEGVTSVKPGDHVIPLYTAECGECEFCRSGKTNLCVAVRETQGKGLMPDGTTRFSYNGQPLYHYMGCSTFSEYTVVAEVSLAKINPEANHEHVCLLGCGVTTGIGAVHNTAKVQPGDSVAVFGLGAIGLAVVQGARQAKAGRIIAIDTNPKKFDLARRFGATDCINPNDYDKPIKDVLLDINKWGIDHTFECIGNVNVMRAALESAHRGWGQSVIIGVAVAGQEISTRPFQLVTGRVWKGSAFGGVKGRSQLPGMVEDAMKGDIDLEPFVTHTMSLDEINDAFDLMHEGKSIRTVIRY
Assigned Label: true (1)
--
Sequence Text: MTQPMPGKPAEDAENELDIRGLFRTLWAGKLWIIGMGLAFALIALAYTFFARQEWSSTAITDRPTVNMLGGYYSQQQFLRNLDVRSNMASADQPSVMDEAYKEFVMQLASWDTRREFWLQTDYYKQRMVGNSKADAALLDEMINNIQFIPGDFTRAVNDSVKLIAETAPDANNLLRQYVAFASQRAASHLNDELKGAWAARTIQMKAQVKRQEEVAKAIYDRRMNSIEQALKIAEQHNISRSATDVPAEELPDSEMFLLGRPMLQARLENLQAVGPAFDLDYDQNRAMLNTLNVGPTLDPRFQTYRYLRTPEEPVKRDSPRRAFLMIMWGIVGGLIGAGVALTRRCSK [P0AG00]
Assigned Label: true (1)
--
Sequence Text: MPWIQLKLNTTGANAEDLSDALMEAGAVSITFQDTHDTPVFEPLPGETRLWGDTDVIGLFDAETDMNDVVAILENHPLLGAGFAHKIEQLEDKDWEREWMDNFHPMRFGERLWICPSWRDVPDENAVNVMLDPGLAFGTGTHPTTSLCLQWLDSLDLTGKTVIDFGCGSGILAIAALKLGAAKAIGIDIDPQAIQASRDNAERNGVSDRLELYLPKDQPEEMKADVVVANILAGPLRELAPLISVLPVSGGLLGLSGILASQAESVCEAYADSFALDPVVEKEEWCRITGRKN [P0A8T1]
Assigned Label: true (1)
--
Sequence Text: MNALTAVQNNAVDSGQDYSGFTLTPSAQSPRLLELTFTEQTTKQFLEQVAEWPVQALEYKSFLRFRVAKILDDLCANQLQPLLLKTLLNRAEGALLINAVGVDDVKQADEMVKLATAVAHLIGRSNFDAMSGQYYARFVVKNVDNSDSYLRQPHRVMELHNDGTYVEEITDYVLMMKIDEQNMQGGNSLLLHLDDWEHLDNYFRHPLARRPMRFAAPPSKNVSKDVFHPVFDVDQQGRPVMRYIDQFVQPKDFEEGVWLSELSDAIETSKGILSVPVPVGKFLLINNLFWLHGRDRFTPHPDLRRELMRQRGYFAYASNHYQTHQ
Assigned Label: false (0)

**Q:** Determine whether measured total protein half-life in vivo meets or exceeds 4 h for `MVAPIPAKRGRKPAVATAPATGQVQSLTRGLKLLEWIAESNGSVALTELAQQAGLPNSTTHRLLTTMQQQGFVRQVGELGHWAIGAHAFMVGSSFLQSRNLLAIVHPILRNLMEESGETVNMAVLDQSDHEAIIIDQVQCTHLMRMSAPIGGKLPMHASGAGKAFLAQLSEEQVTKLLHRKGLHAYTHATLVSPVHLKEDLAQTRKRGYSFDDEEHALGLRCLAACIFDEHREPFAAISISGPISRITDDRVTEFGAMVIKAAKEVTLAYGGMR`
**A:** true (1)
